tested on: Phakopsora pachyrhizi (F129L); experiment: Protective control of soybean rust on soybeans (PHAKPA P2); format: in vivo; details: protective P2, 16 ppm, soybean rust F129L
measure: % PHAKPA (F129L) Disease level P2 at 16 ppm
Remember to put the unit after the number in your answer.

CO/N=C(/C(=O)OC)c1cccc(C)c1CO/N=C(\C)c1ccc(F)cc1C(F)(F)F
15%
CNC(=O)/C(=N/OC)c1cccc(C)c1CO/N=C(/c1ccc(Cl)cc1)C(F)F
90%
CO/N=C(/C(=O)OC)c1cccc(C)c1CO/N=C(\C)c1cccc(F)c1
3%
CO/N=C(/C(=O)OC)c1cccc(C)c1CO/N=C(\C)c1cccc(-c2noc(C(F)(F)F)n2)c1
70%

Fill in: % PHAKPA (F129L) Disease level P2 at 16 ppm of `CO/N=C(\C)COc1cccc(/C(C)=N/OCc2c(C)cccc2/C(=N\OC)C(=O)OC)c1` is ___
47%

Fill in: % PHAKPA (F129L) Disease level P2 at 16 ppm of `CNC(=O)/C(=N/OC)c1cccc(C)c1CO/N=C(\C)c1cc(Br)ccc1F` is ___
0%

----------
system: Phakopsora pachyrhizi (F129L); assay: Protective control of soybean rust on soybeans (PHAKPA P6); format: in vivo; conditions: protective P6, 4 ppm, soybean rust F129L
Hi! Could you tag entries with % PHAKPA (F129L) Disease level P6 at 4 ppm below 80% as criterion met, and those at or above as criterion not met? Much appreciated.

CO/N=C(/C(=O)OC)c1cccc(C)c1CO/N=C(\C)c1ccccc1C#N
criterion not met
CNC(=O)/C(=N/OC)c1cccc(C)c1CO/N=C(\CC(F)(F)F)c1cc(Cl)cc(Cl)c1
criterion not met
COC/C(=N\OCc1c(C)cccc1/C(=N\OC)C(=O)OC)c1cccc(C(F)(F)F)c1
criterion not met
CNC(=O)/C(=N/OC)c1cccc(C)c1CO/N=C(\C)c1ccccc1
criterion met
CO/N=C(/C(=O)OC)c1cccc(C)c1CO/N=C(\C)c1cc(-c2ccccc2)cc(C(F)(F)F)c1
criterion not met

Strictly below 80%: is that where % PHAKPA (F129L) Disease level P6 at 4 ppm of `CNC(=O)/C(=N/OC)c1cccc(C)c1CO/N=C(\C)c1c(F)cc(Br)cc1OC(F)(F)F` sits?
criterion met

Strictly below 80%: is that where % PHAKPA (F129L) Disease level P6 at 4 ppm of `CNC(=O)/C(=N/OC)c1cccc(C)c1CO/N=C(\C)c1c(F)cc(F)cc1OC(F)(F)F` sits?
criterion met

Strictly below 80%: is that where % PHAKPA (F129L) Disease level P6 at 4 ppm of `CNC(=O)/C(=N/OC)c1cccc(C)c1CO/N=C(\C)c1ccc(F)c(F)c1` sits?
criterion met

Strictly below 80%: is that where % PHAKPA (F129L) Disease level P6 at 4 ppm of `CNC(=O)/C(=N/OC)c1cccc(C)c1CO/N=C(\C)c1ccccc1Cl` sits?
criterion met

----------
Listed here: items and their measured % PHAKPA (F129L) Disease level P2 at 16 ppm.
tested on: Phakopsora pachyrhizi (F129L); assay: Protective control of soybean rust on soybeans (PHAKPA P2); type: in vivo; settings: protective P2, 16 ppm, soybean rust F129L
Write the value in % as a bare number.

Sample answers from the record:
CO/N=C(/C(=O)OC)c1cccc(C)c1CO/N=C(\C)c1ccc(OC(F)(F)F)cc1F [compound 269]
0
CNC(=O)/C(=N/OC)c1cccc(C)c1CO/N=C(\C)c1cc(C)cc(C)c1 [compound 99]
12
CNC(=O)/C(=N/OC)c1cccc(C)c1CO/N=C(\C)c1cc(Br)cc(F)c1F [compound 241]
0
CNC(=O)/C(=N/OC)c1cccc(C)c1CO/N=C(\C)c1ccccc1C(C)(F)F [compound 372]
26
CO/N=C(/C(=O)OC)c1cccc(C)c1CO/N=C(\C)c1ccc(C#N)cc1 [Ex. 155]
30
CNC(=O)/C(=N/OC)c1cccc(C)c1CO/N=C(\C)c1ccc(-c2ccccc2)cc1 [Ex. 113]
26

Fill in: % PHAKPA (F129L) Disease level P2 at 16 ppm of CO/N=C(/C(=O)OC)c1cccc(C)c1CO/N=C(\C)c1ccccc1OC(F)(F)F [compound 236] is ___
77

Fill in: % PHAKPA (F129L) Disease level P2 at 16 ppm of CO/N=C(/C(=O)OC)c1cccc(C)c1CO/N=C(\C)c1cc(Cl)cc(C(F)(F)F)c1 [compound 33] is ___
33

Numbers sourced from patent US20230172204A1.
